test: Incubation under physiological conditions: formation of (I) from the 14C-labelled dimethyl ester and hydrolysis of the diimide (HPLC); type: physicochemical; details: pH 7.2, 37° C., normal (0.15M) phosphate buffered saline; read-out: half life (hydrolysis to an inactive form) (converted)

{"columns": ["molecule", "half-life"],
 "data": [
  ["O=C1CN(CCN2CC(=O)NC(=O)C2)CC(=O)N1 [diimide (I) R1=R2=H, 1,2-bis-(3,5-dioxopiperazin-1-yl)ethane, reference compound]", "~12 h"]
]}

---

tested on: human mammary epithelial tumor cells (MCF7); experiment: Cytotoxic effect on MCF7 cells, colony formation in culture; format: cell-based; details: dose required to reduce by 50% the number of colonies, 37° C., 12-14 days, read-out: ID50 MCF7
pIC50: −log10 of the molar value.

{"columns": ["compound", "pIC50"],
 "data": [
  ["COC(=O)CN(CCN(CC(N)=O)CC(=O)OC)CC(N)=O [R1=H, R2=H, R3=CH3]", 4.41],
  ["CC(CN(CC(N)=O)CC(=O)OCc1ccccc1)N(CC(N)=O)CC(=O)OCc1ccccc1 (racemic) [R1=CH3, R2=H, R3=CH2 C6 H5]", 4.66],
  ["CC(CN(CC(N)=O)CC(=O)OCc1ccc([N+](=O)[O-])cc1)N(CC(N)=O)CC(=O)OCc1ccc([N+](=O)[O-])cc1 (racemic) [R1=CH3, R2=H, R3=p-NO2 --CH2 C6 H5]", 4.68],
  ["CCCCOCCOC(=O)CN(CCN(CC(N)=O)CC(=O)OCCOCCCC)CC(N)=O [R1=H, R2=H, R3=CH2 CH2 O(CH2)3 CH3]", 4.44],
  ["CC(C)COC(=O)CN(CCN(CC(N)=O)CC(=O)OCC(C)C)CC(N)=O [R1=H, R2=H, R3=CH2 CH(CH3)2]", 3.92],
  ["CC(CN1CC(=O)NC(=O)C1)N1CC(=O)NC(=O)C1 (stereo not drawn) [R1=CH3, R2=H, cyclic imide, reference compound]", 4.77],
  ["C[C@H]([C@H](C)N(CC(N)=O)CC(=O)OCC(=O)O)N(CC(N)=O)CC(=O)OCC(=O)O [R1=CH3, R2=CH3, R3=CH2 CO2 H]", 5.96],
  ["CC(CN(CC(N)=O)CC(=O)OCc1ccccc1[N+](=O)[O-])N(CC(N)=O)CC(=O)OCc1ccccc1[N+](=O)[O-] (racemic) [R1=CH3, R2=H, R3=o-NO2 --CH2 C6 H5]", 4.80],
  ["NC(=O)CN(CCN(CC(N)=O)CC(=O)OCC(=O)O)CC(=O)OCC(=O)O [R1=H, R2=H, R3=CH2 CO2 H]", 4.34]
]}

The measurements presented in this section are drawn from patent US5278187A.
